Listed below: pKd values for each entry.
# Study System: HLA-A*30:02
# Experimental Protocol: IEDB peptide-MHC binding, purified MHC/competitive/radioactivity; filed as Kd, often an IC50 or EC50 that approximates it; bounds were set here for any values at or beyond the usual limits of such assays
# Condition Notes: source organism: Dengue virus 1 Brazil/97-11/1997
pKd: −log10 of the molar value.

Query Sequence | Study System | pKd
IWLKLRDSY | HLA-A*30:02 | 6.17
ISKIPGGNMY | HLA-A*30:02 | 7.81
LHPASAWTLY | HLA-A*30:02 | 7.27
EKSAAIDGEY | HLA-A*30:02 | 7.31

###

# Study System: HLA-B*15:01
# Experimental Protocol: IEDB peptide-MHC binding, purified MHC/direct/fluorescence; filed as Kd, often an IC50 or EC50 that approximates it; bounds were set here for any values at or beyond the usual limits of such assays
# Condition Notes: source organism: Coxiella burnetii

Query Sequence | Study System | Kd
VMKRNFIDF | HLA-B*15:01 | 84.4 nM

###

# Study System: HLA-B*15:01
# Experimental Protocol: IEDB peptide-MHC binding, purified MHC/direct/fluorescence; filed as Kd, often an IC50 or EC50 that approximates it; bounds were set here for any values at or beyond the usual limits of such assays
# Condition Notes: source organism: Yellow fever virus

Query Sequence | U | Kd
RSHAAIGAY | nM | 87

###

# Study System: HLA-A*02:03
# Experimental Protocol: IEDB peptide-MHC binding, purified MHC/direct/fluorescence; filed as Kd, often an IC50 or EC50 that approximates it; bounds were set here for any values at or beyond the usual limits of such assays
# Condition Notes: source organism: Cryptosporidium parvum Iowa II

Query Sequence | Study System | Kd
LPLESCFGV | HLA-A*02:03 | ≥ 20 µM
GFPFFIMPK | HLA-A*02:03 | ≥ 20 µM
MPMSMPIPM | HLA-A*02:03 | ≥ 20 µM

###

# Study System: HLA-A*02:12
# Experimental Protocol: IEDB peptide-MHC binding, purified MHC/direct/fluorescence; filed as Kd, often an IC50 or EC50 that approximates it; bounds were set here for any values at or beyond the usual limits of such assays
# Condition Notes: source organism: Choclo virus
Property Measured: Kd

Query Sequence | Observed Value
HWMDATFNI | ≥ 20 µM

###

# Study System: HLA-B*40:01
# Experimental Protocol: IEDB peptide-MHC binding, purified MHC/direct/fluorescence; filed as Kd, often an IC50 or EC50 that approximates it; bounds were set here for any values at or beyond the usual limits of such assays
# Condition Notes: source organism: Orthohantavirus andesense
pKd: −log10 of the molar value.
Property Measured: pKd

Query Sequence | Property Measured | Observed Value
EKLKKKSAF | pKd | ≤ 4.70

###

# Study System: HLA-A*29:02
# Experimental Protocol: IEDB peptide-MHC binding, purified MHC/competitive/fluorescence; filed as Kd, often an IC50 or EC50 that approximates it; bounds were set here for any values at or beyond the usual limits of such assays
# Condition Notes: source organism: Escherichia coli E22
pKd: −log10 of the molar value.
Property Measured: pKd

Query Sequence | Observed Value
YQTYVSPGA | ≤ 4.70

###

# Study System: HLA-B*51:01
# Experimental Protocol: IEDB peptide-MHC binding, purified MHC/competitive/fluorescence; filed as Kd, often an IC50 or EC50 that approximates it; bounds were set here for any values at or beyond the usual limits of such assays
# Condition Notes: source organism: Mycobacterium tuberculosis variant bovis BCG str. Pasteur 1173P2
pKd: −log10 of the molar value.
Property Measured: pKd

Query Sequence | Property Measured | Observed Value
EPNFSIPQI | pKd | 6.57

###

# Study System: HLA-A*02:02
# Experimental Protocol: IEDB peptide-MHC binding, purified MHC/competitive/radioactivity; filed as Kd, often an IC50 or EC50 that approximates it; bounds were set here for any values at or beyond the usual limits of such assays
# Condition Notes: source organism: Vaccinia virus WR
pKd: −log10 of the molar value.
// label = class 1 if pKd is not less than 6, otherwise class 0

Query Sequence | Study System | Assigned Class
SASDMQKFTI | HLA-A*02:02 | class 0
TIAVSVYGA | HLA-A*02:02 | class 1
VVIVENDNVI | HLA-A*02:02 | class 0
ITNILGGVL | HLA-A*02:02 | class 0
SAEDNYLAKL | HLA-A*02:02 | class 0
VLTSVDIETA | HLA-A*02:02 | class 1
LALTDVEKRI | HLA-A*02:02 | class 1
CIVQSVLRDI | HLA-A*02:02 | class 1
ILRNYLRLYI | HLA-A*02:02 | class 1

###

# Study System: HLA-A*24:03
# Experimental Protocol: IEDB peptide-MHC binding, purified MHC/competitive/fluorescence; filed as Kd, often an IC50 or EC50 that approximates it; bounds were set here for any values at or beyond the usual limits of such assays
# Condition Notes: source organism: Orthohantavirus delgaditoense

Query Sequence | Study System | Kd
DWMERIEDF | HLA-A*24:03 | ≥ 20 µM

###

# Study System: HLA-A*23:01
# Experimental Protocol: IEDB peptide-MHC binding, purified MHC/competitive/radioactivity; filed as Kd, often an IC50 or EC50 that approximates it; bounds were set here for any values at or beyond the usual limits of such assays
# Condition Notes: source organism: SARS coronavirus Tor2
In plain terms, low Kd, meaning strictly below 6 nM, gives Met, and everything else gives Not met.

Query Sequence | Assigned Class
QWSLFFFVY | Not met
NIDATSTGNY | Not met
KWADNNCYL | Not met
DYRHYSASF | Not met
SYSLFDMSKF | Not met
GYQPYRVVVL | Not met
NYMPYVFTLL | Met
LYNSTFFSTF | Met
GMEAQFLYLY | Not met
YFPREGVFVF | Met
DSFKEELDKY | Not met
HISRQRLTKY | Not met
MEAQFLYLY | Not met

###

# Study System: HLA-A*69:01
# Experimental Protocol: IEDB peptide-MHC binding, purified MHC/direct/fluorescence; filed as Kd, often an IC50 or EC50 that approximates it; bounds were set here for any values at or beyond the usual limits of such assays
# Condition Notes: source organism: Vibrio vulnificus
Property Measured: Kd

Query Sequence | Study System | Observed Value
DFPIFNQRY | HLA-A*69:01 | ≥ 20 µM
LLTQSNAGF | HLA-A*69:01 | ≥ 20 µM

###

# Study System: HLA-B*38:01
# Experimental Protocol: IEDB peptide-MHC binding, purified MHC/direct/fluorescence; filed as Kd, often an IC50 or EC50 that approximates it; bounds were set here for any values at or beyond the usual limits of such assays
# Condition Notes: source organism: Mycobacterium tuberculosis str. Haarlem
pKd: −log10 of the molar value.
Listed below: pKd values for each entry.

Query Sequence | pKd
RGRIGRTYL | ≤ 4.70
VPRDRNGTF | ≤ 4.70

###

# Study System: HLA-A*02:03
# Experimental Protocol: IEDB peptide-MHC binding, purified MHC/competitive/radioactivity; filed as Kd, often an IC50 or EC50 that approximates it; bounds were set here for any values at or beyond the usual limits of such assays
# Condition Notes: source organism: Dengue virus 2 16681-PDK53
pKd: −log10 of the molar value.

Query Sequence | pKd
KVSCTILAV | 7.24

###

# Study System: HLA-B*40:01
# Experimental Protocol: IEDB peptide-MHC binding, purified MHC/competitive/radioactivity; filed as Kd, often an IC50 or EC50 that approximates it; bounds were set here for any values at or beyond the usual limits of such assays
# Condition Notes: source organism: Mammarenavirus machupoense
pKd: −log10 of the molar value.

Query Sequence | Study System | Readout Relation | pKd
EEPVALLPLS | HLA-B*40:01 | = | 5.29
DESKKEINLL | HLA-B*40:01 | ≤ | 4.16

###

# Study System: HLA-A*02:19
# Experimental Protocol: IEDB peptide-MHC binding, purified MHC/direct/fluorescence; filed as Kd, often an IC50 or EC50 that approximates it; bounds were set here for any values at or beyond the usual limits of such assays
# Condition Notes: source organism: Influenza A virus(A/swine/Shandong/fNY/2003(H9N2))

Query Sequence | Kd
VSPLAVTWW | ≥ 20 µM

###

Listed below: Kd values for each entry.
# Study System: HLA-B*27:05
# Experimental Protocol: IEDB peptide-MHC binding, purified MHC/direct/fluorescence; filed as Kd, often an IC50 or EC50 that approximates it; bounds were set here for any values at or beyond the usual limits of such assays
# Condition Notes: source organism: Pseudomonas aeruginosa

Query Sequence | Kd
VVAVGGLAI | ≥ 20 µM
LPQTRWQAV | ≥ 20 µM

###

# Study System: HLA-A*29:02
# Experimental Protocol: IEDB peptide-MHC binding, purified MHC/competitive/fluorescence; bounds were set here for any values at or beyond the usual limits of such assays
# Condition Notes: source organism: Tarsius lariang

Query Sequence | IC50
TEAEKWPFF | ≥ 20 µM
